The variants listed here are annotated with their self-cleavage kobs at 160 uM GlcN6P.
B1: glmS ribozyme (parent)
chain: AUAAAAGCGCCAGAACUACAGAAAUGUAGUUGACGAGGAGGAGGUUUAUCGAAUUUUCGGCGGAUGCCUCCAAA

variants of: B1; test: self-cleavage kobs at 160 uM GlcN6P; higher = faster cleavage; RNA array; conditions: with glucosamine-6-phosphate
This sample holds only a part of the variants without activity.

itemSequence | self-cleavage kobs at 160 uM GlcN6P
AUAAAAGCGCCAUAACUACAGAAAUGUAGUUUAAUAGGAGGAGGUUUAUCGAAUUUUCGGCGGAUGCCUCCAAA [G13U G32U C34A G35U] | < 1e-05 s⁻¹
AUAAAAGCGCCAGAACUACAGAAAUGUAGUUGACGAGGAGGAGGUUUAUCGAAUUGUCGGCCGAUGCCUCCAAA [U56G G62C] | < 1e-05 s⁻¹
AUAAAAGCGCCAGAACUACAGAAAUGUAGUUGACGAGUAGGAGGUUUAUCGAAUUCUCGGCGGAAGCCUCCAAA [G38U U56C U65A] | < 1e-05 s⁻¹
AUAAAAGGGCCAGAGCUACAGAAAUGUAGUUGACGAGGAGGAGGUUUAUCGAAUUUUCGGCGGAUGCCUCCAAA [C8G A15G] | < 1e-05 s⁻¹
AUAAAAGCGCCAGAACUACAGAAAUGUAGUUGAUGAGGAGGAGGUUUGUCGAAUUUUCGGCGGAUGCCUCCAAA [C34U A48G] | < 1e-05 s⁻¹
AUAAAAGCGCCAGAACUACAGAAAUGUAGUUGAGGAGGAGGAGGUUUAUCGAAUUUUCGGCGAAUGCCUCCAAA [C34G G63A] | < 1e-05 s⁻¹
AUAAAAGCGCCUGAACUACAGAAAUGUAGUUGACGAGGAGGAGGUUUAUCGAAUUUUCGGCGGAUGCUUCCAAA [A12U C68U] | 0.000964 s⁻¹
AUAAAAGCGCCAGAACUACAGAAAUGUAGUUGACGAGGACGAGGUUUUUCGAAUUUUCGGCGGAUGCCUCCAAA [G40C A48U] | < 1e-05 s⁻¹
AUAAAAGAGCCAGAACUACAGAAAUGUAGUUGAUGAGGAUUAGGAUUAUCGAAUUUUCGGCUGAUGCCUCCAAA [C8A C34U G40U G41U U45A G62U] | < 1e-05 s⁻¹
AUAAAAGCGCCUGAACUACAGAAAUGUAGUUGACGAGGAGGAGGGUUAUCGAAUUAUCGGCGGAUGCCUCCAAA [A12U U45G U56A] | 0.000953 s⁻¹
AUAAAAGCGCCAGCACUACAGAAAUGUAGUUGACGAGGAGGAGGUUUAUCGAAUUUUCGGCGGAUGCCUUCAAA [A14C C70U] | 0.000308 s⁻¹
AUAAAAGCGCCAGAACUACAGAAAUGUAGUUGACGAGGAGAAGGUUUAUCGAAUUUUGGGCGGAUGCCUCCAAA [G41A C58G] | < 1e-05 s⁻¹
AUAAAAGCGCCGGAACUACAGAAAUGUAGUUGACGAGGAGGAGGUUGAUCGAAUUUUCGGCGGAUGCCUCCAAA [A12G U47G] | 1.69e-05 s⁻¹
AUAAAAGCGCCAGAACUACAGAAAUGUAGUUGACGAGGAGGAGGUUUAUCGAUUUUUCGGCGGAUGCCUACAAA [A53U C70A] | 7.24e-05 s⁻¹
AUAAAAGCUCCAGAACUACAGAAAUGUAGUUGAUGAGGAGGAGGUUUAUCGAAAUUUCGGCGGAUGCCUCCAAA [G9U C34U U54A] | < 1e-05 s⁻¹
AUAAAUGCGCCAGAACUACAGAAAUGUAGUUGACGAGGAGGAGGUUUAUCGAAUUUUCGCCGGAUGACUCCAAA [A6U G60C C67A] | < 1e-05 s⁻¹
AUAAAAGCGCCAGAACUACAGAAAUGUAGUGGACGAGGAGUAGGUUGAUCGAAUUUUCGGCUGUUGCCUGCAAA [U31G G41U U47G G62U A64U C70G] | < 1e-05 s⁻¹
AUAAAAGCGCCAGAACUACAGAAAUGUAGUUGACGUGGAGGAGGUUUAUCGAAUUUUGGGCGGAUGCCUACAAA [A36U C58G C70A] | 0.000111 s⁻¹
AUAAAAGCGCCAGAACUACAGAAAUGUAGUUGACGAGGAGGAGGUUUGUCGAAUUUUCGGCGGAUCCCUCCAAA [A48G G66C] | < 1e-05 s⁻¹
AUAAAAGCGCCAGAACUACAGAAAUGUAGUUGACGAUGAGGAGGUUUAUGGAAUUUUCGGCGGAUGCCUCCAAA [G37U C50G] | 7.65e-05 s⁻¹
AUAAAAGCGCCAGAACUACAGAAAUGUAGUUGACGGGGAAGAGAUGUAUCCAAUUUUCGGCGGAUGCCUCCAAA [A36G G40A G44A U46G G51C] | < 1e-05 s⁻¹
AUAAAAGCGCCAGAACUACAGAAAUGUAGUAGACGAGGAGGAGGUUGAUCGAAUUUUCGGCGGAUGCCUCCAAA [U31A U47G] | 0.000353 s⁻¹
AUAAAAGCGCCAGACCUACAGAAAUGUAGUUGACGAGGAGGAGGUUUAUCGAAUUUUCGGCGGAUGACUCCAAA [A15C C67A] | 0.000103 s⁻¹
AUAAAAGCGCCAGAACUACAGAAAUGUAGUUGACUAGGAGGAGGUUUUUCGAAUUUUCGGCGGAUGCCUCCAAA [G35U A48U] | < 1e-05 s⁻¹
AUAAAAGCGCCAGAACUACAGAAAUGUAGUUGACGAGGAGCUGGUUUAUCGAAUUUUCGGCGGAUGCCUCCAAA [G41C A42U] | < 1e-05 s⁻¹
AUAAAAGCGCCAAAACUACAGAAAUGUAGUUGACGAGGAGGAGGUUUAUCGAAUUUUCGGCGGAUGCCGCCAAA [G13A U69G] | 4.26e-05 s⁻¹
AUAAAAGCGCCAGAGCUACAGAAAUGUAGUUGACGAGGAGGAGGUGUUUCGAAUUUUCAGCGGAUGCCUCCAAA [A15G U46G A48U G59A] | < 1e-05 s⁻¹
AUAAAAGCCACAGAACUACAGAAAUGUAGUUGACGAGGAGGACGUUUAUCGAAUUUUCGGCGGAUGUCUCCAAA [G9C C10A G43C C67U] | < 1e-05 s⁻¹
AUAAAACCUCCAGAACUACAGAAAUGUAGUUGACGGGGAGGAGGUUUAUCGAAUUUUCGGCGGAUGCAUCCAAA [G7C G9U A36G C68A] | < 1e-05 s⁻¹
AUAAAAGCACCAGAACUACAGAAAUGUAGUUGACGAGGAGGAGGUUUAUCGAAUUUUCGGCGGAUGAGUCCAAA [G9A C67A C68G] | < 1e-05 s⁻¹
AUAAAAGCGCCAGAACUACAGAAAUGUAGUUGACGGGGAGGAGGUUUAUCGAAUUUACGGCGGAUGCCUCCAAA [A36G U57A] | < 1e-05 s⁻¹
AUAAAAGCGCCAGAACUACAGAAAUGUAGUUAACGAGGAGGUGGUUUAUCGAAUUUUCGGCGGAUGCCUACAAA [G32A A42U C70A] | < 1e-05 s⁻¹
AUAAAAGCGCCAGAACUACAGAAAUGUAGUUGACGAGCAGGAGGUUUAUCGAAUUUUCGGCGGAUGACUCCAAA [G38C C67A] | < 1e-05 s⁻¹
AUAAAAGGGCCAUAACUACAGAAAUGUAGUUGACGAGGAGGAGGUUUAUCGAAUUUUCGGCGGAUGCCUCCAAA [C8G G13U] | < 1e-05 s⁻¹
AUAAAAGCGCCAGAACUACAGAAAUGUAGUUGACCAGGAGGAGGUUUAUCGAAUUCUCGGCGGAUGCCUCCAAA [G35C U56C] | < 1e-05 s⁻¹
AUAAAAGCGCCAGAACUACAGAAAUGUAGUUGACGAGGAGGAGAUUUAUCGAAUAUUCGGCGGAUGCCUCCAAA [G44A U55A] | 5.44e-05 s⁻¹
AUAAAAGCGCCUGAACUACAGAAAUGUAGUUGACAAGGAUGAGGUUUAUCGAAUUUUCGGCGGAUGCCUCCAAA [A12U G35A G40U] | < 1e-05 s⁻¹
AUAAAAGCGCCAGAACUACAGAAAUGUAGUUGACGAGGAGGGGGUGUAUCGAAUUUUCGGCGGACGCUUCCAAA [A42G U46G U65C C68U] | < 1e-05 s⁻¹
